- Tested on: Fluoroquinolone Sensitive Strains
- assay protocol: In-vitro antimicrobial test, MIC by two-fold serial agar dilution (NCCLS): fluoroquinolone sensitive strains (Table 17)
- Type: cell-based
- assay conditions: Staphylococcus aureus, ATCC 25923 / MSSA, MSSA ATCC 25923, read-out: MIC, MSSA ATCC 25923
Checkbox rule: MIC lower than 0.05 µg/mL = met; MIC not lower than 0.05 µg/mL = not met.

>>> print(df.to_string())
                                   compound                    subject_of_test  label_class
0  Cc1c(N2CCC(O)CC2)c(F)cc2c(=O)c(C(=O)O)cn(C3CC3)c12  Fluoroquinolone Sensitive Strains      not met
1  COc1c(N2CC(C)C(O)C(C)C2)c(F)c(N)c2c(=O)c(C(=O)O)cn(C3CC3)c12 (centres unmarked)  Fluoroquinolone Sensitive Strains          met
2  COc1c(N2CCC(O)C(C)(C)C2)c(F)c(N)c2c(=O)c(C(=O)O)cn(C3CC3)c12 (centres unmarked)  Fluoroquinolone Sensitive Strains          met
3  CCNC1C(C)CN(c2c(F)cc3c(=O)c(C(=O)O)cn(C4CC4)c3c2OC)CC1C (centres unmarked)  Fluoroquinolone Sensitive Strains      not met
4  COc1c(N2CCC(N)C(C)(C)C2)c(F)cc2c(=O)c(C(=O)O)cn(-c3ccc(F)cc3F)c12 (centres unmarked)  Fluoroquinolone Sensitive Strains      not met

Read the next record carefully.
# input Identify whether the compound COc1c(N2CCC(O)C(C)C2)c(F)c(N)c2c(=O)c(C(=O)O)cn(C3CC3)c12 (centres unmarked) records MIC below 0.05 µg/mL.
# output met

* * *

- System: J 744 (mouse macrophage)
- assay protocol: Cytotoxicity test (Alamar blue), J 744 cells (Table 23)
- Type: cell-based
- assay conditions: minimum drug concentration inhibiting Alamar blue color change; 3 hrs drug exposure, then 96 hrs incubation; J 744 mouse macrophage cells
property name: Cytotoxic concentration, J 744 Macrophage

Solved cases below.
                                   compound  value_measured
0  Cc1c(N2CC[C@@H](O)[C@H](C)C2)c(F)cc2c(=O)c(C(=O)O)cn(C3CC3)c12 (relative stereo) [Compound 86]     >1000 µg/mL
1  Cc1c(N2CCC(N)C(C)(C)C2)c(F)cc2c(=O)c(C(=O)O)cn(C3CC3)c12 (racemic) [Compound 92]     >1000 µg/mL

Consider the additional compound presented here.
Sample Cc1c(N2CC[C@H](O)[C@H](C)C2)c(F)cc2c(=O)c(C(=O)O)cn(C3CC3)c12 (relative stereo) [Compound 85] ; Cytotoxic concentration, J 744 Macrophage observed: >1000 µg/mL
